- Method Notes: Phase I single dose oral AMX0035 fasted/fed plasma pharmacokinetics and food effect (Protocol A35-002)
- Type: in vivo, human
- Condition Context: both sexes, human, in vivo, single dose AMX0035 fed; Median; read-out: AUC(0-last)
Metric Name: AUC(0-t) (ng·h/mL)

{"columns": ["Molecule", "Value"],
 "data": [
  ["O=C(O)Cc1ccccc1 [PAA, phenylacetate]", 53100]
]}

----------
- Method Notes: clinical
- Type: in vivo, human
- Condition Context: both sexes, human, in vivo, mean Cmax
List of Cmax values.
Metric Name: Cmax

{"columns": ["Compound", "Value"],
 "data": [
  ["C[C@H](CCC(=O)NCCS(=O)(=O)O)[C@H]1CC[C@H]2[C@@H]3[C@@H](O)C[C@@H]4C[C@H](O)CC[C@]4(C)[C@H]3CC[C@]12C", "0.871 µg/mL"],
  ["O=C(O)CCCc1ccccc1 [PB, sodium phenylbutyrate]", "188 µg/mL"]
]}

----------
- Method Notes: Phase I single dose oral AMX0035 fasted/fed plasma pharmacokinetics and food effect (Protocol A35-002)
- Assay type: in vivo, human
- Condition Context: both sexes, human, in vivo, po, single oral AMX0035, Fed (N = 13), healthy subjects, PK analysis subset; read-out: Cmax, Adj Geo Mean

{"columns": ["Molecule", "Cmax / µg/mL"],
 "data": [
  ["O=C(O)Cc1ccccc1 [PAA, phenylacetate]", 16.1]
]}

----------
- Method Notes: Phase I single dose oral AMX0035 fasted/fed plasma pharmacokinetics and food effect (Protocol A35-002)
- Type: in vivo, human
- Condition Context: both sexes, human, in vivo, po, single oral AMX0035, Fasted (N = 13), healthy subjects, PK analysis subset; read-out: AUC(0-inf), Adj Geo Mean
Metric Name: AUC(0-inf) (µg·h/mL)

{"columns": ["Compound", "Metric Name", "Value"],
 "data": [
  ["O=C(O)Cc1ccccc1 [PAA, phenylacetate]", "AUC(0-inf)", 84.8]
]}

----------
- Method Notes: clinical
- Type: in vivo, human
- Condition Context: both sexes, human, in vivo, Cmax
List of Cmax values.

{"columns": ["Compound", "Cmax"],
 "data": [
  ["C[C@H](CCC(=O)O)[C@H]1CC[C@H]2[C@@H]3[C@@H](O)C[C@@H]4C[C@H](O)CC[C@]4(C)[C@H]3CC[C@]12C [UDCA, ursodeoxycholic acid]", "639 ng/mL"],
  ["C[C@H](CCC(=O)NCCS(=O)(=O)O)[C@H]1CC[C@H]2[C@@H]3[C@@H](O)C[C@@H]4C[C@H](O)CC[C@]4(C)[C@H]3CC[C@]12C [TURSO, taurursodiol]", "741 ng/mL"]
]}

----------
List of Tmax values.
- Method Notes: clinical
- Format: in vivo, human
- Condition Context: both sexes, human, in vivo, Tmax

{"columns": ["Compound", "Tmax (h)"],
 "data": [
  ["O=C(O)CCCc1ccccc1 [PB, sodium phenylbutyrate]", 0.5],
  ["C[C@H](CCC(=O)NCCS(=O)(=O)O)[C@H]1CC[C@H]2[C@@H]3[C@@H](O)C[C@@H]4C[C@H](O)CC[C@]4(C)[C@H]3CC[C@]12C", 4.5]
]}

----------
- Method Notes: Phase I single dose oral AMX0035 fasted/fed plasma pharmacokinetics and food effect (Protocol A35-002)
- Type: in vivo, human
- Condition Context: both sexes, human, in vivo, single dose AMX0035 fed; Median; read-out: T1/2 (converted)
Metric Name: half-life (min)

{"columns": ["Compound", "Metric Name", "Value"],
 "data": [
  ["O=C(O)Cc1ccccc1 [PAA, phenylacetate]", "half-life", 47]
]}
